test: Half life in DIO mice brain at 10 mg/kg, po; type: ADME, organism-based; parameters: dose 10 mg/kg, route oral; details: mouse
measurement.name: half-life (h)

Worked cases, half-life given:
O=[N+]([O-])c1ccc2[nH]nc(NC3CCN(Cc4ccc5c(c4)OCO5)CC3)c2c1 ... 4
Clc1ccc2c(c1)c(NC1CCN(Cc3ccc4c(c3)OCO4)CC1)nn2Cc1cccnc1 ... 6

I: Clc1ccc2[nH]nc(NC3CCN(Cc4ccc5c(c4)OCO5)CC3)c2c1
II: COc1ccc2[nH]nc(NC3CCN(Cc4ccc5c(c4)OCO5)CC3)c2c1
IN: Compare I and II by numeric half-life and name the larger one. I would appreciate it if you answered with the label of your choice.
OUT: II

====

test: Cmax in DIO mice brain at 10 mg/kg, po; assay type: ADME, organism-based; parameters: dose 10 mg/kg, route oral; conditions: mouse
measurement.name: Cmax (ng/mL)

Clc1ccc2c(c1)c(NC1CCN(Cc3ccc4c(c3)OCO4)CC1)nn2Cc1cccnc1 ... 758
COc1ccc2[nH]nc(NC3CCN(Cc4ccc5c(c4)OCO5)CC3)c2c1 ... 6040

P: O=[N+]([O-])c1ccc2[nH]nc(NC3CCN(Cc4ccc5c(c4)OCO5)CC3)c2c1
Q: Clc1ccc2[nH]nc(NC3CCN(Cc4ccc5c(c4)OCO5)CC3)c2c1
IN: Which numeric Cmax is bigger, that of P or that of Q ? Use the label to indicate which entry you chose.
OUT: Q

====

assay: Cmax in DIO mice plasma at 10 mg/kg, po; format: ADME, organism-based; parameters: dose 10 mg/kg, route oral; settings: mouse
measurement.name: Cmax (ng/mL)

Clc1ccc2c(c1)c(NC1CCN(Cc3ccc4c(c3)OCO4)CC1)nn2Cc1cccnc1 ... 1690

P: Clc1ccc2[nH]nc(NC3CCN(Cc4ccc5c(c4)OCO5)CC3)c2c1
Q: O=C(c1cccnc1)n1nc(NC2CCN(Cc3ccc4c(c3)OCO4)CC2)c2cc(Cl)ccc21
IN: Between the entries labeled P and Q , whose measured Cmax is lower? Record your answer as the label of the chosen record.
OUT: Q
(Q: 63 ng/mL, P: 1880 ng/mL)

I: COc1ccc2[nH]nc(NC3CCN(Cc4ccc5c(c4)OCO5)CC3)c2c1
II: O=C(c1cscn1)n1nc(NC2CCN(Cc3ccc4c(c3)OCO4)CC2)c2cc(Cl)ccc21
IN: Kindly compare I with II and tell me which has the lower Cmax figure. Refer to your chosen entry by its label in the reply.
OUT: II

====

assay: Half life in DIO mice plasma at 10 mg/kg, po; type: ADME, organism-based; design: dose 10 mg/kg, route oral; conditions: mouse
measurement.name: half-life (h)

Clc1ccc2[nH]nc(NC3CCN(Cc4ccc5c(c4)OCO5)CC3)c2c1 ... 3.1
Clc1ccc2c(c1)c(NC1CCN(Cc3ccc4c(c3)OCO4)CC1)nn2Cc1cccnc1 ... 4.7
O=[N+]([O-])c1ccc2[nH]nc(NC3CCN(Cc4ccc5c(c4)OCO5)CC3)c2c1 ... 3.3

I: COc1ccc2[nH]nc(NC3CCN(Cc4ccc5c(c4)OCO5)CC3)c2c1
II: O=C(c1cccnc1)n1nc(NC2CCN(Cc3ccc4c(c3)OCO4)CC2)c2cc(Cl)ccc21
III: O=C(c1cscn1)n1nc(NC2CCN(Cc3ccc4c(c3)OCO4)CC2)c2cc(Cl)ccc21
IN: Order the entries by their reported half-life, beginning at the minimum. Use the labels to give the requested order.
OUT: III, II, I
